test: Cytotoxicity activity against human HepG2 cells assessed by CellTiter-Glo luminescent cell viability assay.; format: toxicity, cell-based; design: assay stage confirmatory assay, source tissue liver; conditions: HepG2 cells, read-out: IC50 relative
Activity calls are given as the source filed them. The rule behind the calls is not given here.
Possible outcomes: active, inactive

smiles_representation=Cc1cn2c(=O)c(S(=O)(=O)NCC3CCN(Cc4ccc(Cl)cc4)CC3)c(C)nc2s1 classification=active
smiles_representation=Cc1cc(NC(=O)CSC(C)C)cc2sc(N)nc12 classification=active
smiles_representation=CC(=O)N1c2ccc(-c3ccc(C(=O)O)cc3)cc2[C@H](Nc2ccc(Cl)cc2)C[C@@H]1C classification=active
smiles_representation=NS(=O)(=O)c1ccc(S(=O)(=O)Nc2cccc3c(Cl)c[nH]c23)cc1 classification=inactive
smiles_representation=COc1ccc(OC2CCN(CC[C@H]3CCCCN3C)CC2)cc1 classification=inactive
smiles_representation=CC(C)N1CCN(Cc2cnc(-c3cc(-c4cccc5[nH]ccc45)cc4[nH]ncc34)o2)CC1 classification=active
smiles_representation=Cc1ccccc1OCC(=O)Nc1ccc(OC2CCN(C)CC2)cc1 classification=inactive
smiles_representation=COc1ccc(C(=O)N[C@@H]2CN(Cc3ccccc3)C[C@H]2CN(C)C)cc1 classification=active
smiles_representation=C=C(C)[C@H]1Cc2c(ccc3c2O[C@@H]2COc4cc(OC)c(OC)cc4[C@@H]2C3=O)O1 classification=active
smiles_representation=CCCNC(=O)N1CC(Oc2ccc(-c3noc(C4CCOCC4)n3)cc2)C1 classification=active

---

experiment: Cytotoxicity activity against human HepG2 cells assessed by CellTiter-Glo luminescent cell viability assay.; assay type: toxicity, cell-based; parameters: assay stage confirmatory assay, source tissue liver; settings: HepG2 cells, read-out: IC50 relative
Structures can show the parent of a compound that is named as a salt. Calls of active or inactive are those of the source. How the calls were made is not given here.
Possible outcomes: T = active, F = inactive

molecule=Cc1cccc(-c2[nH]c(C(C)(C)C)nc2-c2ccc3c(c2)OCO3)n1 classification=T
molecule=COCCOc1ccc2c(c1)ncn2-c1ccc2cccc(N3CCC(N)CC3)c2n1 classification=T
molecule=Cc1cnc(Nc2ccc(OCCN3CCCC3)cc2)nc1Nc1cccc(S(=O)(=O)NC(C)(C)C)c1 classification=T
molecule=CC(C)(CN)c1cccc(-c2cccc(CN)c2)c1 classification=T
molecule=CCn1c(NC(=O)c2ccc(OC)c(OC)c2)nc2cc(C#N)ccc21 classification=T
molecule="OCC1CCCN(CCNCc2ccc(Cl)c(Cl)c2)C1 (stereo unspecified)" classification=T
molecule=COc1cc(C(=O)N2CCC(N3CCN(C)CC3)CC2)ccc1Nc1ncc2c(n1)N(C)c1ccccc1C(=O)N2C classification=T
molecule=Cc1nn(-c2cccc(Cl)c2)nc1C(=O)N(C)C1CCNCC1 classification=T
molecule=CC(C)Cn1ccnc1NC(=O)COc1ccc2ccccc2c1 classification=T
molecule="CCN(CC)CCCC(C)Nc1c2ccc(Cl)cc2nc2ccc(OC)cc12 (stereo unspecified) [QUINACRINE DIHYDROCHLORIDE]" classification=T
molecule=Cc1c(O)ccc2c(CN3CCN(c4ccc(F)cc4)CC3)cc(=O)oc12 classification=F
molecule=Cc1cc(C(=O)Nc2ccccn2)c2ccccc2n1 classification=T
molecule=CCCN1C(=O)COc2cc(-c3noc(C(=O)NC4CCN(Cc5ccccc5)CC4)n3)ccc21 classification=F
molecule=O=S(=O)(Nc1cccc2cccnc12)c1ccc2c(c1)OCCO2 classification=T
molecule=Cc1nc(-c2ccccn2)[nH]c(=O)c1CC(=O)N(C)[C@H]1CCc2ccccc21 classification=T
molecule=O=C(Nc1ccc(Cn2cnc3ccccc32)cc1)c1ccc(=O)[nH]n1 classification=F
molecule=CC(C)(C)c1ccc(CSc2cnn(C(C)(C)C)c(=O)c2Cl)cc1 classification=T
molecule=O=c1c2ccccc2sn1-c1nccs1 classification=F
molecule=O=C(Nc1nccs1)C1=C(c2ccccc2)S(=O)(=O)CCO1 classification=T
molecule=CC1(C)CC=C(c2nc(C3CC(C)(C)OC(C)(C)C3)ccc2NC(=O)c2nc(C#N)c[nH]2)CC1 classification=T
molecule=CCN(CC)C(=S)SSC(=S)N(CC)CC classification=F
molecule=COCCn1cc(C(=O)Nc2nc3ccccc3[nH]2)c2ccccc21 classification=F
molecule=CC(=O)N1CCN(c2ccc(OC[C@@H]3CO[C@@](Cn4ccnc4)(c4ccc(Cl)cc4Cl)O3)cc2)CC1 classification=T
molecule=COc1cc(N2CCC(N3CCN(C)CC3)CC2)ccc1Nc1ncc(Cl)c(Nc2ccccc2P(C)(C)=O)n1 classification=T
molecule=COc1ccc(NC(=O)Nc2ccc3c(c2)N(S(C)(=O)=O)CC3)cc1Cl classification=F
molecule=CCn1c(SCc2cc(=O)n3ccsc3n2)nc2sc(C)c(C)c2c1=O classification=F
molecule=Cc1cc(OCCOCCN2CCN(C)CC2)c(Cl)c(C)c1Cl classification=T
molecule="CCC(C)NC(=O)N1CC(Oc2ccc(-c3noc(C4CC4)n3)cc2)C1 (stereo unspecified)" classification=T
molecule="CN(Cc1cc(=O)n2cccc(O)c2n1)CC1(c2ccccc2)CC1(C)C (stereo unspecified)" classification=T
molecule=O=c1c2ccccc2[se]n1-c1ccccc1 classification=F
molecule=C#CCNC(=O)c1ccccc1NCc1ccc(C#N)cc1OC classification=T
molecule=Cc1cccc(-c2noc(-c3ccc(N4CCN(C)CC4)nc3)n2)c1 classification=T
molecule=O=C(Nc1ccc2[nH]nc(-c3ccncc3)c2c1)[C@@H]1CCN(CC(=O)N2CCN(c3ccc(-c4ncccn4)cc3)CC2)C1 classification=T
molecule=COc1ccc(NS(=O)(=O)c2ccc(-c3cnc(C)o3)cc2)cc1OC classification=T
molecule="Cc1ccc2nccc(N3CCCC(CCC(=O)N(C)C)C3)c2c1 (stereo unspecified)" classification=T
molecule=Cc1c(CN2CCN(C(=O)[C@H](C)O)CC2)sc2c(N3CCOCC3)nc(-c3cnc(N)nc3)nc12 classification=T
molecule=O=C(Nc1ccncc1)c1cccn(Cc2cccc(F)c2)c1=O classification=T
molecule="CC(C)c1ccc(CNCCN2CCCCC2CO)cc1 (stereo unspecified)" classification=T
molecule=Cc1ccc(-n2nc(C(C)(C)C)cc2NC(=O)NCc2cc(F)ccc2Oc2ccc3c(cnn3CCO)c2)cc1 classification=T
molecule=O=C1COc2c(CCNCCN(C(=O)CCNCCc3ccc(Cl)c(Cl)c3)C3CCCCC3)ccc(O)c2N1 classification=T
molecule="CC(NC(=O)N1CCCN(C)C2(CCNCC2)C1)c1ccccc1Cl (stereo unspecified)" classification=T

---

test: Cytotoxicity activity against human HepG2 cells assessed by CellTiter-Glo luminescent cell viability assay.; format: toxicity, cell-based; parameters: assay stage confirmatory assay, source tissue liver; conditions: HepG2 cells, read-out: IC50 relative
Where a name gives a salt, the structure may show the parent alone. Active and inactive are the calls of the source. The rule behind the calls is not given here.
Listing: CC50 of selected compounds
EXPERIMENTAL READOUT: CC50

compound=CCN1CCC(NC[C@H](C)Oc2ccc(C(C)C)cc2)CC1 result="7.1 µM (active)"
compound="COc1ccc(-c2ccc3c(N4CCOC[C@@H]4C)nc(N4CCOC[C@@H]4C)nc3n2)cc1CO [AZD-8055]" result="0.1 µM (active)"
compound=c1ccc2c(NCCCCCCNc3c4c(nc5ccccc35)CCCC4)c3c(nc2c1)CCCC3 result="1.2 µM (active)"
compound=CC(C)(C)C[C@H]1N[C@@H](C(=O)N[C@H]2CC[C@H](O)CC2)[C@H](c2cccc(Cl)c2F)[C@@]12C(=O)Nc1cc(Cl)ccc12 result="4.9 µM (active)"
compound="CC1Oc2ccc(S(=O)(=O)N3CCN(C(=O)c4ccc(Br)cc4)CC3)cc2NC1=O (stereo not drawn)" result="4 µM (active)"
compound="Cc1ccc(NC(=O)c2ccc(CN3CCN(C)CC3)cc2)cc1Nc1nccc(-c2cccnc2)n1 [IMATINIB]" result="7.3 µM (active)"
compound=CCCNC(=O)N1CC(Oc2ccc(-c3noc(C4CC4)n3)cc2)C1 result="6.1 µM (active)"
compound=COc1ccc(OC)c(S(=O)(=O)Nc2ccc3nc(S(C)(=O)=O)sc3c2)c1 result="6.9 µM (active)"
compound=CN([C@H]1CCN(c2ccccc2F)C1=O)S(=O)(=O)c1cccc2cnccc12 result="4.3 µM (active)"
compound="O=C(Nc1c[nH]nc1-c1nc2cc(CN3CCOCC3)ccc2[nH]1)NC1CC1 [AT-9283]" result="1.2 µM (active)"
compound=Cc1cc(N2CCN([C@@H](C)c3nc(C(C)(C)C)no3)CC2)nc(C(C)C)n1 result="11.9 µM (active)"
compound="CNCC[C@H](Oc1cccc2ccccc12)c1cccs1 [DULOXETINE HYDROCHLORIDE]" result="4.3 µM (active)"
compound=C1=CC[C@@H](CNC2CCN(Cc3ccccc3)CC2)CC1 result="13 µM (active)"
compound=c1ccc(Cn2c(-c3ccc(OC[C@H](C4CCNCC4)n4c(-c5ccccc5)nc5ccccc54)cc3)nc3ccccc32)cc1 result="1.6 µM (active)"
compound=COc1cccc(NC(=O)Nc2nc3ccc(S(C)(=O)=O)cc3s2)c1 result="18.1 µM (inactive)"
compound=CN1CCc2nc(C(=O)c3nc4c(s3)CN(C)CC4)sc2C1 result="0.5 µM (active)"
compound=COc1ccc(-c2cnc3ccc(N4CCCC4)nn23)cc1OC result="4.3 µM (active)"
compound=CN1CCN(Cc2ccc(-c3cnc4[nH]cc(-c5ccc6[nH]ccc6c5)c4c3)cc2)CC1 result="1.4 µM (active)"
compound=Nc1nc(NC[C@H]2CC[C@H](CNS(=O)(=O)c3cccc4ccccc34)CC2)nc2ccccc12 result="2 µM (active)"
compound=CC(=O)c1ccc(S(=O)(=O)Nc2cccc3cccnc23)cc1 result="3.5 µM (active)"
compound=CC(C)(Cc1ccc2ccccc2c1)NC[C@@H](O)COc1cccc(Cl)c1C#N result="1.3 µM (active)"
compound=COc1cccc(-c2noc(-c3ccc(N4CCN(C(C)C)CC4)nc3)n2)c1OC result="13.1 µM (active)"
compound=CNc1c(Cl)ncnc1NCc1cccc(Cn2cccn2)c1 result="1.4 µM (active)"
compound="CC(Cc1ccc(O)c(O)c1)C(C)Cc1ccc(O)c(O)c1 (stereo not drawn) [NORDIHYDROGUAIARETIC ACID]" result="10.3 µM (inactive)"
compound=COc1ccc(C(N)=O)c(OCc2cccc3cccnc23)c1 result="0.3 µM (active)"
compound=COc1ccc(-c2csc3[nH]c(=O)cc(O)c23)cc1 result="3.7 µM (active)"
compound=CCOC(=O)c1cnn(-c2ccc(NC(=O)C(Cl)=C(Cl)Cl)cc2)c1C(F)(F)F result="1 µM (active)"
compound=CCn1c(=O)c(-c2ccc(-c3cncs3)cc2Cl)cc2cnc(Nc3ccc(N4CCN(C)CC4)cc3)nc21 result="29 µM (inactive)"
compound="CN(CCN1CCC(OC(=O)Nc2ccccc2-c2ccccc2)CC1)C(=O)c1ccc(CN2CCC(C(N)=O)CC2)cc1 [REVEFENACIN]" result="13.2 µM (active)"
compound="N#Cc1ccc2[nH]c(O)c(-c3ccc(CN4CCOCC4)cn3)c2c1 [AZD-1080]" result="7.3 µM (active)"
compound=CC1(C)CN2C(CS/C(=N\C3CCCCC3)NC3CCCCC3)=CSC2=N1 result="6 µM (active)"
compound=CC(C)n1nc(-c2cc3cc(O)ccc3[nH]2)c2c(N)ncnc21 result="2.6 µM (active)"
compound="CNCCC(Oc1ccc(C(F)(F)F)cc1)c1ccccc1 (stereo not drawn) [FLUOXETINE HYDROCHLORIDE]" result="6.6 µM (active)"
compound=CCN1C(=O)COc2ccc(NC(=O)c3cc(-c4ccc5c(c4)OCCO5)on3)cc21 result="50 µM (inactive)"
compound="Cn1nccc1Nc1nccc(-c2ccn([C@H](CO)c3ccc(Cl)c(F)c3)c(=O)c2)n1 [RAVOXERTINIB]" result="0.7 µM (active)"
compound=CC(C)c1nn(-c2ccccc2)cc1CNCC(C)(C)N1CCN(C)CC1 result="4.9 µM (active)"
compound=O=C(Nc1ccc2c(c1)OCCO2)N1CCN(c2ccnc(N3CCCCC3)n2)CC1 result="12.1 µM (active)"
compound=C=CC(=O)Nc1ccc2ncnc(Nc3ccc(OCc4cccc(F)c4)c(Cl)c3)c2c1 result="7.7 µM (active)"
